Every entry's value here was drawn from patent US11548884B2.

Biological target: human TLR9 (Homo sapiens, UniProt Q9NR96)
Sequence (Q9NR96 26-1032): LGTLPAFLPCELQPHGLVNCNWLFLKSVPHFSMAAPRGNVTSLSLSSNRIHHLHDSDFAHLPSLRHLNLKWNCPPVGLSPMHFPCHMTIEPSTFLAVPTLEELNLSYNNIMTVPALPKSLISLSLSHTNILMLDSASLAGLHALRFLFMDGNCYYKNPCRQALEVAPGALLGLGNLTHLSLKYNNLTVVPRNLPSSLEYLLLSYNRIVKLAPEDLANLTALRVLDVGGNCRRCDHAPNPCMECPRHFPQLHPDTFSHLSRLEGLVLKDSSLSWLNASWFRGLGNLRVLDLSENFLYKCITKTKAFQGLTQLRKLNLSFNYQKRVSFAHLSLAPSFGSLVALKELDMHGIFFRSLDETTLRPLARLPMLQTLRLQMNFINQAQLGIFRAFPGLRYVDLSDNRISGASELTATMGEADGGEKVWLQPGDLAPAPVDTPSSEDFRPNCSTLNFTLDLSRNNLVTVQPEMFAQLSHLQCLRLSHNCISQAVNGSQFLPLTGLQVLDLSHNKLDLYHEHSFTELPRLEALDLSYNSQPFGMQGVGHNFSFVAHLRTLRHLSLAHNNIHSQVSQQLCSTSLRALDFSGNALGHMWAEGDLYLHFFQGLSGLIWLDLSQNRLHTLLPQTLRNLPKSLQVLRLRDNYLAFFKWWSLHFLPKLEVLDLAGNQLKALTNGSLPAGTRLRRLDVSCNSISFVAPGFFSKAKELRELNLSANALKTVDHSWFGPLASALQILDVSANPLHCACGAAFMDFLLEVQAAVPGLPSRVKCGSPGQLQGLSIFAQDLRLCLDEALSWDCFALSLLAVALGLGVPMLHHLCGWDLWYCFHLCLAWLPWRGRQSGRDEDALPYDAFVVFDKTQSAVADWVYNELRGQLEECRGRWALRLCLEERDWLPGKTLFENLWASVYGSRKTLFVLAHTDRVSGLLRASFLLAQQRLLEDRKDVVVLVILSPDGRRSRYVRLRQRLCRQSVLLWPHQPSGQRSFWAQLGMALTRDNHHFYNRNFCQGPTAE
Test: HEK293-Blue-hTLR-9 cells assay (SEAP reporter, ODN2006 stimulation)
Settings: HEK293-Blue-hTLR9 cells, ODN2006 ligand, 20 h incubation
measured-metric: IC50 (nM)

[
  {
    "molecule": "C[C@@H]1CN(c2ccc(C#N)c3ncccc23)C[C@H](C2=Nc3ccc(N4CCNCC4)cc3CN2)O1",
    "measured-metric": "IC50",
    "endpoint-unit": "nM",
    "value-observed": 102
  },
  {
    "molecule": "C[C@@H]1CN(c2ccc(C#N)c3ncccc23)C[C@H](C2=Nc3cccc(C4CCNCC4)c3CN2)O1",
    "measured-metric": "IC50",
    "endpoint-unit": "nM",
    "value-observed": 90
  },
  {
    "molecule": "C[C@@H]1CN(c2ccc(C#N)c3ncccc23)C[C@H](C2=Nc3cccc(N4CCC5(CCNC5)C4)c3CN2)O1 (stereo partly drawn)",
    "measured-metric": "IC50",
    "endpoint-unit": "nM",
    "value-observed": 313
  },
  {
    "molecule": "C[C@@H]1CN(c2ccc(C#N)c3ncccc23)C[C@H](C2=Nc3cc(N4CCNCC4)ccc3CN2)O1",
    "measured-metric": "IC50",
    "endpoint-unit": "nM",
    "value-observed": 65
  },
  {
    "molecule": "C[C@@H]1CN(c2ccc(C#N)c3ncccc23)C[C@H](C2=Nc3cccc(N4CCN(C)CC4)c3CN2)O1",
    "measured-metric": "IC50",
    "endpoint-unit": "nM",
    "value-observed": 42
  },
  {
    "molecule": "C[C@@H]1CN(c2ccc(C#N)c3ncccc23)C[C@H](C2=Nc3c(cccc3N3CCNCC3)CN2)O1",
    "measured-metric": "IC50",
    "endpoint-unit": "nM",
    "value-observed": 97
  },
  {
    "molecule": "C[C@@H]1CN(c2ccc(C#N)c3ncccc23)C[C@H](C2=Nc3ccc(N4CCNCC4)cc3CCN2)O1",
    "measured-metric": "IC50",
    "endpoint-unit": "nM",
    "value-observed": 49
  },
  {
    "molecule": "C[C@@H]1CN(c2ccc(C#N)c3ncccc23)C[C@H](C2=Nc3cccc(C4=CCNCC4)c3CCN2)O1",
    "measured-metric": "IC50",
    "endpoint-unit": "nM",
    "value-observed": 64
  },
  {
    "molecule": "C[C@@H]1CN(c2ccc(C#N)c3ncccc23)C[C@H](C2=Nc3cccc(N4CCNCC4)c3CN2)O1",
    "measured-metric": "IC50",
    "endpoint-unit": "nM",
    "value-observed": 50
  }
]

* * *

Molecular target: UniProt:Q9NR97
Sequence (Q9NR97 27-1041): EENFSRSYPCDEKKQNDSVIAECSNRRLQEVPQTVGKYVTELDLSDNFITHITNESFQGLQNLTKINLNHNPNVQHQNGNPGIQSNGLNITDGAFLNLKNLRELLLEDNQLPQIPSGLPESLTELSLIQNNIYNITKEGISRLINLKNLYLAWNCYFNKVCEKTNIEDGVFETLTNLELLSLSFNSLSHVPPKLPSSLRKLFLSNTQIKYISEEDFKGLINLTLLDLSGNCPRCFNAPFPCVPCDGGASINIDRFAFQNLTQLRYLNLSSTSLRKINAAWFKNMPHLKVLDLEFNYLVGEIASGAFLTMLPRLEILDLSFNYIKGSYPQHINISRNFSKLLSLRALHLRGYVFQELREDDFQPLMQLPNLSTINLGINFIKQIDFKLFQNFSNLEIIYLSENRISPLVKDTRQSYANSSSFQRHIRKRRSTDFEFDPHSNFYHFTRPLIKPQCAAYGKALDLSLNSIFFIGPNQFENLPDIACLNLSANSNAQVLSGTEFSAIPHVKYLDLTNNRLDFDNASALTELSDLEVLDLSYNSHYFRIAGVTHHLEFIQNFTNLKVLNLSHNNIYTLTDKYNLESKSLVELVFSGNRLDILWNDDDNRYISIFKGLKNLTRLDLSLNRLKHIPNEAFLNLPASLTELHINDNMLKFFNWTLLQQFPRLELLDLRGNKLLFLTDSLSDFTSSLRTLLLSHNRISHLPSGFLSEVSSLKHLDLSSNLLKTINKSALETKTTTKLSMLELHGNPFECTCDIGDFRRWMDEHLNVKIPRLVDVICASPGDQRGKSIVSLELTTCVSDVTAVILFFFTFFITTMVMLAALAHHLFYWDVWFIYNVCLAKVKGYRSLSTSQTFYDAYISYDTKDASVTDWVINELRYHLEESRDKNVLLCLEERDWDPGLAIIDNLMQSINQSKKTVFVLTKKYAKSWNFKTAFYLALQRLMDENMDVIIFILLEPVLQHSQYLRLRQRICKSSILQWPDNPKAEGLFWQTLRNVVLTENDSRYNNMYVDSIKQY
Test: HEK293-Blue-hTLR-8 cells assay (SEAP reporter, R848 stimulation)
Conditions: HEK293-Blue-hTLR8 cells, R848 ligand, 20 h incubation
pIC50: −log10 of the molar value.
Form field: pIC50 (one value per entry).

[
  {
    "molecule": "C[C@@H]1CN(c2ccc(C#N)c3ncccc23)C[C@H](C2=Nc3cc(N4CCNCC4)ccc3CN2)O1 [Example 8]",
    "relation-qualifier": "=",
    "pIC50": 8.40
  },
  {
    "molecule": "C[C@@H]1CN(c2ccc(C#N)c3ncccc23)C[C@H](C2=Nc3c(cccc3N3CCNCC3)CN2)O1 [Example 9]",
    "relation-qualifier": "=",
    "pIC50": 7.34
  },
  {
    "molecule": "C[C@@H]1CN(c2ccc(C#N)c3ncccc23)C[C@H](C2=Nc3cccc(C4=CCNCC4)c3CCN2)O1 [Example 16]",
    "relation-qualifier": "=",
    "pIC50": 6.72
  },
  {
    "molecule": "C[C@@H]1CN(c2ccc(C#N)c3ncccc23)C[C@H](C2=Nc3cccc(N4CCN(C)CC4)c3CN2)O1 [Example 12]",
    "relation-qualifier": "=",
    "pIC50": 7.85
  },
  {
    "molecule": "C[C@@H]1CN(c2ccc(C#N)c3ncccc23)C[C@H](C2=Nc3cccc(N4CCNCC4)c3CN2)O1 [Example 6]",
    "relation-qualifier": "=",
    "pIC50": 8.10
  },
  {
    "molecule": "C[C@@H]1CN(c2ccc(C#N)c3ncccc23)C[C@H](C2=Nc3ccc(N4CCNCC4)cc3CCN2)O1 [Example 17]",
    "relation-qualifier": "=",
    "pIC50": 6.83
  },
  {
    "molecule": "C[C@@H]1CN(c2ccc(C#N)c3ncccc23)C[C@H](C2=Nc3cccc(N4CCC5(CCNC5)C4)c3CN2)O1 (stereo partly drawn) [Example 13]",
    "relation-qualifier": "=",
    "pIC50": 7.06
  },
  {
    "molecule": "C[C@@H]1CN(c2ccc(C#N)c3ncccc23)C[C@H](C2=Nc3cccc(C4CCNCC4)c3CN2)O1 [Example 18]",
    "relation-qualifier": "=",
    "pIC50": 7.15
  },
  {
    "molecule": "C[C@@H]1CN(c2ccc(C#N)c3ncccc23)C[C@H](C2=Nc3ccc(N4CCNCC4)cc3CN2)O1 [Example 7]",
    "relation-qualifier": ">",
    "pIC50": 8.52
  }
]

* * *

Molecular target: UniProt:Q9NYK1
Sequence (Q9NYK1 27-1049): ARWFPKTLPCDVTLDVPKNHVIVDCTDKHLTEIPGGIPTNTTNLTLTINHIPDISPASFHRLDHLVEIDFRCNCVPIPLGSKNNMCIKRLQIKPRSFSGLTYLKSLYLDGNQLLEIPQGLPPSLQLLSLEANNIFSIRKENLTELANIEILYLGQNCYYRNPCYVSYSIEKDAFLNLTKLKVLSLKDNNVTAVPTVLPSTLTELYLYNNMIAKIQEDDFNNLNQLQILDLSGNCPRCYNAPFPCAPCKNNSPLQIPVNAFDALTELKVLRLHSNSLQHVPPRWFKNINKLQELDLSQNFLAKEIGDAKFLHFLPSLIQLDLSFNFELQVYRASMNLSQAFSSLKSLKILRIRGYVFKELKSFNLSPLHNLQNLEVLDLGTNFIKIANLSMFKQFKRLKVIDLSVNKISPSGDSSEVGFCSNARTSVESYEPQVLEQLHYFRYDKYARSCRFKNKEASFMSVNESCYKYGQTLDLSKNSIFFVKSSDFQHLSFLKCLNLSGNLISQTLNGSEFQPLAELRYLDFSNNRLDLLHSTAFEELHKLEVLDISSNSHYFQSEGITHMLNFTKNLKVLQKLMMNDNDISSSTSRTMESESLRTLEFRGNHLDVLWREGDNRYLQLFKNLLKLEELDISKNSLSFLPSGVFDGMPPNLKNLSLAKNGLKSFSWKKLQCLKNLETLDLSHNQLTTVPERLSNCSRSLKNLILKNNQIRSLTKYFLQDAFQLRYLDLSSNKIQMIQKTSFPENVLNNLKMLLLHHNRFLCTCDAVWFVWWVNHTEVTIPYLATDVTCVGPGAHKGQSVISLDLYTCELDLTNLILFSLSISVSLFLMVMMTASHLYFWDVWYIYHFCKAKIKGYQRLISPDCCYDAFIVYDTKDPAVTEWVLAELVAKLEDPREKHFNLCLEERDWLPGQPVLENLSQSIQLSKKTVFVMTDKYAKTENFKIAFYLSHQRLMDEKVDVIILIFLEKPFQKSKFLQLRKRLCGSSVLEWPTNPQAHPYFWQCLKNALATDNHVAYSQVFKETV
Assay: HEK293-Blue-hTLR-7 cells assay (SEAP reporter, R848 stimulation)
Details: HEK293-Blue-hTLR7 cells, R848 ligand, 20 h incubation

[
  {
    "compound": "C[C@@H]1CN(c2ccc(C#N)c3ncccc23)C[C@H](C2=Nc3cc(N4CCNCC4)ccc3CN2)O1 [Example 8]",
    "system-tested": "UniProt:Q9NYK1",
    "IC50 [nM]": 18
  },
  {
    "compound": "C[C@@H]1CN(c2ccc(C#N)c3ncccc23)C[C@H](C2=Nc3ccc(N4CCNCC4)cc3CN2)O1 [Example 7]",
    "system-tested": "UniProt:Q9NYK1",
    "IC50 [nM]": 12
  },
  {
    "compound": "C[C@@H]1CN(c2ccc(C#N)c3ncccc23)C[C@H](C2=Nc3ccc(N4CCNCC4)cc3CCN2)O1 [Example 17]",
    "system-tested": "UniProt:Q9NYK1",
    "IC50 [nM]": 362
  },
  {
    "compound": "C[C@@H]1CN(c2ccc(C#N)c3ncccc23)C[C@H](C2=Nc3cccc(N4CCN(C)CC4)c3CN2)O1 [Example 12]",
    "system-tested": "UniProt:Q9NYK1",
    "IC50 [nM]": 83
  },
  {
    "compound": "C[C@@H]1CN(c2ccc(C#N)c3ncccc23)C[C@H](C2=Nc3cccc(N4CCC5(CCNC5)C4)c3CN2)O1 (stereo partly drawn) [Example 13]",
    "system-tested": "UniProt:Q9NYK1",
    "IC50 [nM]": 294
  },
  {
    "compound": "C[C@@H]1CN(c2ccc(C#N)c3ncccc23)C[C@H](C2=Nc3cccc(C4=CCNCC4)c3CCN2)O1 [Example 16]",
    "system-tested": "UniProt:Q9NYK1",
    "IC50 [nM]": 251
  },
  {
    "compound": "C[C@@H]1CN(c2ccc(C#N)c3ncccc23)C[C@H](C2=Nc3cccc(C4CCNCC4)c3CN2)O1 [Example 18]",
    "system-tested": "UniProt:Q9NYK1",
    "IC50 [nM]": 130
  },
  {
    "compound": "C[C@@H]1CN(c2ccc(C#N)c3ncccc23)C[C@H](C2=Nc3cccc(N4CCNCC4)c3CN2)O1 [Example 6]",
    "system-tested": "UniProt:Q9NYK1",
    "IC50 [nM]": 40
  },
  {
    "compound": "C[C@@H]1CN(c2ccc(C#N)c3ncccc23)C[C@H](C2=Nc3c(cccc3N3CCNCC3)CN2)O1 [Example 9]",
    "system-tested": "UniProt:Q9NYK1",
    "IC50 [nM]": 36
  }
]
